B1: library; a variant is named by its letters at N, in order (parent)
chain: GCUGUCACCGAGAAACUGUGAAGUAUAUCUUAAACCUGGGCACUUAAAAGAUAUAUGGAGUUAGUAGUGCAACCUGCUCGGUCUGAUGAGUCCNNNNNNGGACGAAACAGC

Variants of: B1
Assay: normalized RNA/DNA level without ligand (relative to sTRSVctl = 100) (log10 (% of sTRSVctl)); HEK293T; ligand: cyclic di-GMP (c-di-GMP-II aptamer); higher = less ribozyme self-cleavage, higher mRNA level
Settings: reporter: mCherry (pCS4076), ligand present: no
outcome measure: normalized RNA/DNA level without ligand (log10)

{"change": "UACUUA", "result number": 1.7}
{"change": "CCACCU", "result number": 1.66}
{"change": "AUAAUC", "result number": 1.68}
{"change": "UGAGGA", "result number": 1.54}
{"change": "CUUUCA", "result number": 1.42}
{"change": "GGUUUC", "result number": 1.8}
{"change": "UACUGU", "result number": 1.61}
{"change": "AGUAUG", "result number": 1.54}
{"change": "CGGAAA", "result number": 1.16}
{"change": "UGCGUG", "result number": 1.71}
{"change": "AUACGC", "result number": 1.66}
{"change": "UCAUCC", "result number": 1.78}
{"change": "UGGAAA", "result number": 1.63}
{"change": "GAUCUA", "result number": 1.67}
{"change": "CAGCAG", "result number": 1.79}
{"change": "GUGUAU", "result number": 1.6}
{"change": "AUAAGC", "result number": 1.6}
{"change": "CGCGGG", "result number": 1.67}
{"change": "CUGCCU", "result number": 1.64}
{"change": "CAGCAA", "result number": 1.36}
{"change": "CGGAAG", "result number": 1.75}
{"change": "ACAACA", "result number": 1.46}
{"change": "CGGGUC", "result number": 1.81}
{"change": "GCUCAA", "result number": 1.6}
{"change": "ACCUAG", "result number": 1.64}
{"change": "CGUUGG", "result number": 1.74}
{"change": "AUUUUG", "result number": 1.68}
{"change": "AAGUAG", "result number": 1.68}
{"change": "UUACGG", "result number": 1.82}
{"change": "CGCCGG", "result number": 1.71}
{"change": "UGACGA", "result number": 1.59}
{"change": "CACUUC", "result number": 1.71}
{"change": "UGUUAA", "result number": 1.69}
{"change": "GUCCCU", "result number": 1.77}
{"change": "UGCCAG", "result number": 1.76}
{"change": "CUCGCC", "result number": 1.78}
{"change": "CUUACU", "result number": 1.59}
{"change": "GCGGAA", "result number": 1.33}
{"change": "GCCUUU", "result number": 1.69}
{"change": "UUUAGA", "result number": 1.72}
{"change": "GAACCA", "result number": 1.68}
{"change": "CGUACA", "result number": 1.32}
{"change": "GUUUAC", "result number": 1.74}
{"change": "ACUUCG", "result number": 1.66}
{"change": "AGAAAC", "result number": 1.62}
{"change": "AUGUAA", "result number": 1.54}
